// data source = ChEMBL document CHEMBL1201862

Target: Ataxin-2 (Homo sapiens)
Assay: qHTS for Inhibitors of ATXN expression.
Format: functional
About 2,100 (0.53%) of roughly 400,000 compounds were called active. Roughly 14% stayed inconclusive and do not appear here. No rule for the calls is given here. Many of the other results were omitted from the sample, so actives are more common in it than they were.
Answer with one of the outcomes true = active, false = inactive

O=S(=O)(NCc1csc(-c2cccs2)n1)c1ccc(Cl)cc1; false
Cc1cc(C)n(-c2nnc(Cl)c3ccccc23)n1; true
CC(C)N1CCc2c(sc(NC(=O)c3cc(-c4cccs4)nc4ccccc34)c2C(N)=O)C1; true
CCc1ccccc1N(CC(=O)NC(C)(C)CC)C(=O)CCC(=O)Nc1nccs1; false
CSc1ccc(CN(C)Cc2nc(O)c3ccccc3n2)cc1; false
CC(C)C1Cc2c(sc3ncnc(NN)c23)CO1 (stereo not given); false
COc1ccc(Nc2ccc3c(c2)=NC2(CCCCC2)[N+]=3[O-])cc1; true
O=C(c1nc(-c2ccc(Cl)cc2)n2c1CCCCC2)N1CCN(c2ccc(F)cc2)CC1; true

Prompt: Please state the recorded outcome for this molecule: CCC(=O)Nc1sc2c(c1C(N)=O)CCN(Cc1ccccc1)C2
Response: false

Prompt: Please state the recorded outcome for this molecule: O=C1S/C(=C\c2ccc(O)c([N+](=O)[O-])c2)C(=O)N1c1ccccc1Cl
Response: true

Prompt: Please state the recorded outcome for this molecule: Cc1nn(CC(=O)N2CCN(c3ccc(Cl)cc3)CC2)c(=O)c2cccn12
Response: false

Prompt: Please state the recorded outcome for this molecule: CCCCN1C(C(=O)Nc2cc(C)on2)=C(O)c2ccccc2S1(=O)=O
Response: false

Prompt: Please state the recorded outcome for this molecule: O=C(COc1ccc(Br)cc1)N1CCc2ccccc21
Response: false

Prompt: Please state the recorded outcome for this molecule: COc1ccc(OCCCC(=O)ON=C(N)c2ccccc2C)cc1
Response: false

Prompt: Please state the recorded outcome for this molecule: COc1ccc(Nc2ccnc(Nc3ccc(OC)cc3)n2)cc1
Response: false

###

Biological target: Ataxin-2 (Homo sapiens) (UniProt Q99700)
Sequence (Q99700 whole entry): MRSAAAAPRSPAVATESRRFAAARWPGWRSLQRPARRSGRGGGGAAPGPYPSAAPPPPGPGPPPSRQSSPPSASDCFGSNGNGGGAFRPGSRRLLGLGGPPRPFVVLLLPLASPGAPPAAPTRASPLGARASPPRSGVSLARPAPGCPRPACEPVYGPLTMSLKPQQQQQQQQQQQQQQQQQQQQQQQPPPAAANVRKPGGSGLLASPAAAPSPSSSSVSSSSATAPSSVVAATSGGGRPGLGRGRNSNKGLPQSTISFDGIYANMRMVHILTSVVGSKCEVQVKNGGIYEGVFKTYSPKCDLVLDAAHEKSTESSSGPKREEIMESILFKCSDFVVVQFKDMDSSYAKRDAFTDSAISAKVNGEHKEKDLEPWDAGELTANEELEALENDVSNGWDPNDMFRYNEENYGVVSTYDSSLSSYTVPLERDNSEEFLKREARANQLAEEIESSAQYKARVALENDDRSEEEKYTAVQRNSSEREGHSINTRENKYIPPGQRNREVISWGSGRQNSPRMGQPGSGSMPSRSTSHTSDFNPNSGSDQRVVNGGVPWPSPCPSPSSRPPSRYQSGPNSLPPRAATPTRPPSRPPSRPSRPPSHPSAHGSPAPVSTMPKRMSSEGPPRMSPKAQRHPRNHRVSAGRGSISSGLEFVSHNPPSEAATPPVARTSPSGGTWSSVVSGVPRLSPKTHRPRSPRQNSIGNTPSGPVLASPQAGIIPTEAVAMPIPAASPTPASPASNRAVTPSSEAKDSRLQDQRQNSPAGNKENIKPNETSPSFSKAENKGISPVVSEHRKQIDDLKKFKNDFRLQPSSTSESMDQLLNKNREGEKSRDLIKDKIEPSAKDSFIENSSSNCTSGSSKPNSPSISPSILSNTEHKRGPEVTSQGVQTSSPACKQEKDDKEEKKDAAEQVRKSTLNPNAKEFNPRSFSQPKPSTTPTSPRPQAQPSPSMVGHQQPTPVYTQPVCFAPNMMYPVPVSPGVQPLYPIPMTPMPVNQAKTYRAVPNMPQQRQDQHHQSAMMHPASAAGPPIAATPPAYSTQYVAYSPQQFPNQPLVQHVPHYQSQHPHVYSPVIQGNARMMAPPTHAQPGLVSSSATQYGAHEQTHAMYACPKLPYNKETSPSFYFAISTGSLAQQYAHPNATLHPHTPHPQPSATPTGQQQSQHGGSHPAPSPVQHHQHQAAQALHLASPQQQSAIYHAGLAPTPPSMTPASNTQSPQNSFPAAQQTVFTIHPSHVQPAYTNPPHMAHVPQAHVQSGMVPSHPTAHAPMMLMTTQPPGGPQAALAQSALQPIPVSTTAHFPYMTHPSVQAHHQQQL
Test: qHTS for Inhibitors of ATXN expression.
Assay type: functional
Hit rate of the full screen: of about 400,000 compounds, about 2,100 (0.53%) were called active. Not shown: some 14% with an inconclusive outcome. No rule for the calls is given here. Shown is part of a subset that was picked to be rich in actives.
Answer with one of the outcomes Yes for active, No for inactive

Solved entries (count: 5):
CNC(=O)Nc1cc(C(F)(F)F)cc(C(F)(F)F)c1; No
COc1cc(/C=C2\C(=N)N3N=CSC3=NC2=O)cc(Br)c1OC(=O)c1ccco1; No
O=C(C=Cc1ccccc1F)c1ccccc1; Yes
NC(c1csc(NC(=O)Nc2cccc(C(F)(F)F)c2)n1)C1CCCCC1 (centres undefined); Yes
CC/N=c1\scc(C)n1/N=C/c1cc(Br)c(O)c(OC)c1; No

Prompt: Please state the recorded outcome for this compound: Cc1cccc(NC(=O)c2nc(S(=O)(=O)Cc3ccccc3)ncc2Cl)c1
Response: Yes

Prompt: Please state the recorded outcome for this compound: O=C(c1ccc(Cl)cc1)C(CN1CCCC1)c1ccccc1 (centres undefined)
Response: Yes

Prompt: Please state the recorded outcome for this compound: O=C(/C=C/c1cn(CC(O)CN2CCCCCC2)c2ccccc12)c1ccccc1 (centres undefined)
Response: No

Prompt: Please state the recorded outcome for this compound: CC1=NN(c2ccccc2)C(=O)C1/C=N/c1ccc(N(C)C)cc1 (centres undefined)
Response: No

###

Biological target: Ataxin-2 (Homo sapiens)
Assay: qHTS for Inhibitors of ATXN expression.
Type: functional
In all, about 400,000 compounds went through this assay and about 2,100 (0.53%) were called active. Roughly 14% stayed inconclusive and do not appear here. No rule for the calls is given here. Shown is part of a subset that was picked to be rich in actives.
Answer with one of the outcomes 1.0 = active, 0.0 = inactive

CC(NC(=O)OCc1ccccc1)C(=O)Oc1cc2oc(=O)cc(-c3ccccc3)c2cc1Cl (stereo not given); 0.0

Prompt: Please state the recorded outcome for this compound: CCOC(=O)C(=Cc1ccc(-n2ccnc2)cc1)C(=O)OCC
Response: 1.0

Prompt: Please state the recorded outcome for this compound: CN1CCc2c(sc3c2C(=O)NC(c2ccc(-c4cccc(Cl)c4)o2)N3)C1 (stereo not given)
Response: 0.0

Prompt: Please state the recorded outcome for this compound: COc1ccccc1/C=C1\SC(=S)N(CCC(=O)NC2=NCCS2)C1=O
Response: 0.0

###

Target: Ataxin-2 (Homo sapiens) (UniProt Q99700)
Test: qHTS for Inhibitors of ATXN expression.
Assay type: functional
Hit rate of the full screen: of about 400,000 compounds, about 2,100 (0.53%) were called active. About 14% were inconclusive and are not listed. The rule behind the calls is not given here. Many of the other results were omitted from the sample, so actives are more common in it than they were.
Answer with one of the outcomes active, inactive

Solved entries (count: 3):
COCCCn1c(=N)c(C(=O)NC2CCCC2)cc2c(=O)n3cccc(C)c3nc21; inactive
CC(=O)Nc1ccc2c3c(cccc13)C(=O)N(c1ccccc1)C2=O; inactive
CC(=O)Nc1cc[n+](CC(=O)c2cccc([N+](=O)[O-])c2)cc1; inactive

Please turn your attention to the following entry.
Prompt: Please state the recorded outcome for this compound: c1ccc2c3c(c(CN4CCCC4)cc2c1)COC3
Response: inactive

###

Target: Ataxin-2 (Homo sapiens)
Test: qHTS for Inhibitors of ATXN expression.
Assay type: functional
The whole screen tested about 400,000 compounds, of which about 2,100 (0.53%) were called active. Roughly 14% stayed inconclusive and do not appear here. How the calls were made is not given here. For the sample, actives were picked, then their nearest neighbours and some compounds at random.
Answer with one of the outcomes true = active, false = inactive

Solved entries (count: 4):
COc1cc(C2CC(=O)N(Cc3ccc(F)cc3)c3ccccc3S2)cc(OC)c1OC (stereo not given); true
COc1ccccc1CCn1c(N)c(C#N)c2nc3ccccc3nc21; false
N#C/C(=C\c1ccc(N2CCOCC2)o1)C(=O)NCCc1ccccc1; false
Cc1ccc(C(=O)N2CCN(Cc3ccc4c(c3)OCO4)CC2)cc1S(=O)(=O)N1CCOCC1; false

Please turn your attention to the following entry.
Prompt: Please state the recorded outcome for this molecule: COc1cc(C2CC(c3cccnc3)=NN2c2ccc(F)cc2)cc(OC)c1OC (stereo not given)
Response: false

###

Biological target: Ataxin-2 (Homo sapiens) (UniProt Q99700)
Assay: qHTS for Inhibitors of ATXN expression.
Type: functional
In all, about 400,000 compounds went through this assay and about 2,100 (0.53%) were called active. Roughly 14% stayed inconclusive and do not appear here. The full list was thinned out, with actives kept by preference.
Measurement Type: Potency

Cn1cc(/C=C2\SC(=S)N(NC(=O)c3ccccc3)C2=O)c2ccccc21; inactive
COc1ccc(C(=O)O/N=C(\N)Cc2ccc(Cl)c(Cl)c2)cc1OC; 28.2 µM (active)
NC(=O)C1CCN(CC(=O)Nc2ccccc2Sc2ccc(Cl)cc2)CC1; inactive
CCOc1ccc(C(=O)C2CCN(C(=O)c3ccc([N+](=O)[O-])cc3)CC2)cc1; inactive
Cc1ccc(C(=O)OCn2ncc(Cl)c(Cl)c2=O)cc1; 20 µM (active)

Prompt: Look up Potency for this compound: C=Cc1ccc(Cn2c(C(=O)O)c(CNC3CCCC3)c3ccc(C)cc32)cc1
Response: 44.7 µM (active)

Prompt: Look up Potency for this compound: O=C(NC1CCCc2ccccc21)c1ccccc1Cl (configuration not stated)
Response: inactive

Prompt: Look up Potency for this compound: CCCC(=O)n1nc(-c2ccc(C)cc2)nc1NCc1ccco1
Response: inactive

Prompt: Look up Potency for this compound: CCCSc1nsc(NC(=O)Nc2ccc(F)cc2F)n1
Response: 31.6 µM (active)

Prompt: Look up Potency for this compound: O=C(O)C(c1ccccc1)N1C(=O)/C(=C\c2ccc(O)c(O)c2)SC1=S (configuration not stated)
Response: 39.8 µM (active)

Prompt: Look up Potency for this compound: CCC1=NN(C(=O)c2ccccc2O)C(O)(c2ccccc2)C1 (configuration not stated)
Response: 25.1 µM (active)

Prompt: Look up Potency for this compound: CN(C)c1ccc(-c2ccc3c(=O)c4ccccc4n(C)c3c2)cn1
Response: inactive

###

Molecular target: Ataxin-2 (Homo sapiens)
Assay: qHTS for Inhibitors of ATXN expression.
Assay type: functional
In all, about 400,000 compounds went through this assay and about 2,100 (0.53%) were called active. Inconclusive results (about 14%) are left out. The rule behind the calls is not given here. What follows is part of a selection rich in actives, with near analogues and random picks from the rest.
Answer with one of the outcomes t for active, f for inactive

Solved entries (count: 6):
Cc1ccccc1/C=C/c1nc(O)c2ccccc2n1; t
CCN(CC)c1ccc2c(C)c(-c3ccc(N)cc3)c(=O)oc2c1; f
O=C(NN/C=C1/C(=O)N(c2ccc(Cl)cn2)C(=O)c2ccccc21)C1CC1; f
CN(C)c1ccc(/C=C/c2nc(O)c3ccccc3n2)cc1; f
N#CC(Sc1ccccn1)c1ccc(Cl)cc1 (stereo unspecified); f
Cc1cccc(C)c1N=C(S)NCCc1ccc(O)c(O)c1; f

Prompt: Please state the recorded outcome for this compound: CCN(CC)C(=O)C1=C(C)N(Cc2ccc(C(C)(C)C)cc2)C(=O)C(CC(=O)NCCCCc2ccccc2)C1 (stereo unspecified)
Response: t

Prompt: Please state the recorded outcome for this compound: CCN(CC)C(=O)C1=C(C)N(Cc2ccc(C(C)(C)C)cc2)C(=O)C(CC(=O)NCc2cccc3ccccc23)C1 (stereo unspecified)
Response: t
